Entries annotated with measured tissue to tissue ratio at 48 h
assay: Biodistribution in Daudi xenograft bearing mice; format: in vivo, mouse; details: female, CB-17 SCID, mouse, tumor / blood, iv, total radioactivity; 48h p.i.; means ± SD, n=4-5 animals; read-out: Tumor/organ ratio t/blood
Where a SMILES comes first, the peptide text is derived from it. Side-chain parts run from the residue outwards. [ ]: non-standard residue; d: D form. The star is where a group is joined. DOTA = O=C(O)CN1CCN(CC(=O)O)CCN(CC(=O)*)CCN(CC(=O)O)CC1; dTyr(3-I) = N[C@H](Cc1ccc(O)c(I)c1)C(=O)O; 2Nal = N[C@@H](Cc1ccc2ccccc2c1)C(=O)O; dNMeOrn = CN[C@H](CCCN)C(=O)O; 4Amb = NCc1ccc(C(=O)O)cc1; 4Abz = Nc1ccc(C(=O)O)cc1
Lab note: jot the number down without any unit.

Examples from the recorded data:
{"compound": "C[C@@H](NC(=O)[C@@H](CCCNC(=N)N)NC(=O)CN1CCN(CC(=O)O)CCN(CC(=O)O)CCN(CC(=O)O)CC1)C(=O)Nc1ccc(C(=O)NCCC[C@@H]2C(=O)N[C@@H](CCCNC(=N)N)C(=O)N[C@@H](Cc3ccc4ccccc4c3)C(=O)NCC(=O)N[C@H](Cc3ccc(O)cc3)C(=O)N2C)cc1 [[^177Lu]DOTA-r-a-ABA-CPCR4, metal not drawn] (cyclo([2Nal]G[dY][dNMeOrn]([4Abz-dA-dR-DOTA])R))", "measurement_label": "tissue to tissue ratio at 48 h", "recorded_value": 949}
{"compound": "C[C@@H](NC(=O)[C@@H](CCCNC(=N)N)NC(=O)CN1CCN(CC(=O)O)CCN(CC(=O)O)CCN(CC(=O)O)CC1)C(=O)Nc1ccc(C(=O)NCCC[C@@H]2C(=O)N[C@@H](CCCNC(=N)N)C(=O)N[C@@H](Cc3ccc4ccccc4c3)C(=O)NCC(=O)N[C@H](Cc3ccc(O)c(I)c3)C(=O)N2C)cc1 [[^177Lu]DOTA-r-a-ABA-iodoCPCR4, metal not drawn] (cyclo([2Nal]G[dTyr(3-I)][dNMeOrn]([4Abz-dA-dR-DOTA])R))", "measurement_label": "tissue to tissue ratio at 48 h", "recorded_value": 320}

Attention now shifts to the item below.
Query: Identify measured tissue to tissue ratio at 48 h associated with CN1C(=O)[C@@H](Cc2ccc(O)c(I)c2)NC(=O)CNC(=O)[C@H](Cc2ccc3ccccc3c2)NC(=O)[C@H](CCCNC(=N)N)NC(=O)[C@H]1CCCNC(=O)c1ccc(CNC(=O)CN2CCN(CC(=O)O)CCN(CC(=O)O)CCN(CC(=O)O)CC2)cc1 [[^177Lu]PentixaTher, metal not drawn, reference compound] (cyclo([dTyr(3-I)][dNMeOrn]([4Amb-DOTA])R[2Nal]G))
Reply: 201

---

assay: Biodistribution in Daudi xenograft bearing mice; assay type: in vivo, mouse; settings: female, CB-17 SCID, mouse, lung, iv, total radioactivity, 1h p.i., coinjection of 50 µg AMD3100/animal; n=1; read-out: Biodistribution lung, + AMD3100
Where a SMILES comes first, the peptide text is derived from it. Side-chain parts run from the residue outwards. [ ]: non-standard residue; d: D form. The star is where a group is joined. DOTA = O=C(O)CN1CCN(CC(=O)O)CCN(CC(=O)*)CCN(CC(=O)O)CC1; 2Nal = N[C@@H](Cc1ccc2ccccc2c1)C(=O)O; dNMeOrn = CN[C@H](CCCN)C(=O)O; 4Abz = Nc1ccc(C(=O)O)cc1
measurement_label: tissue uptake at 1 h (%ID/g)
Quick note: give the figure in %ID/g, leave out the unit.

Query: Find the measured tissue uptake at 1 h of C[C@@H](NC(=O)[C@@H](CCCNC(=N)N)NC(=O)CN1CCN(CC(=O)O)CCN(CC(=O)O)CCN(CC(=O)O)CC1)C(=O)Nc1ccc(C(=O)NCCC[C@@H]2C(=O)N[C@@H](CCCNC(=N)N)C(=O)N[C@@H](Cc3ccc4ccccc4c3)C(=O)NCC(=O)N[C@H](Cc3ccc(O)cc3)C(=O)N2C)cc1 [[^177Lu]DOTA-r-a-ABA-CPCR4, metal not drawn] (cyclo([2Nal]G[dY][dNMeOrn]([4Abz-dA-dR-DOTA])R)) and report it.
Reply: 3.34

---

test: Biodistribution in Daudi xenograft bearing mice; type: in vivo, mouse; conditions: female, CB-17 SCID, mouse, spleen, iv, total radioactivity, 6h p.i., i.v.; means ± SD, n=4-5; read-out: Biodistribution spleen
Where a SMILES comes first, the peptide text is derived from it. Side-chain parts run from the residue outwards. [ ]: non-standard residue; d: D form. The star is where a group is joined. DOTA = O=C(O)CN1CCN(CC(=O)O)CCN(CC(=O)*)CCN(CC(=O)O)CC1; dTyr(3-I) = N[C@H](Cc1ccc(O)c(I)c1)C(=O)O; 2Nal = N[C@@H](Cc1ccc2ccccc2c1)C(=O)O; dNMeOrn = CN[C@H](CCCN)C(=O)O; 4Abz = Nc1ccc(C(=O)O)cc1
measurement_label: tissue uptake at 6 h (%ID/g)
Dear colleague, please return just the value in %ID/g, with no unit written.

{"compound": "C[C@@H](NC(=O)[C@@H](CCCNC(=N)N)NC(=O)CN1CCN(CC(=O)O)CCN(CC(=O)O)CCN(CC(=O)O)CC1)C(=O)Nc1ccc(C(=O)NCCC[C@@H]2C(=O)N[C@@H](CCCNC(=N)N)C(=O)N[C@@H](Cc3ccc4ccccc4c3)C(=O)NCC(=O)N[C@H](Cc3ccc(O)c(I)c3)C(=O)N2C)cc1 [[^177Lu]DOTA-r-a-ABA-iodoCPCR4, metal not drawn] (cyclo([2Nal]G[dTyr(3-I)][dNMeOrn]([4Abz-dA-dR-DOTA])R))", "measurement_label": "tissue uptake at 6 h", "recorded_value": 2.95}

Here is another compound to look at.
Query: Please report tissue uptake at 6 h for the following compound: C[C@@H](NC(=O)[C@@H](CCCNC(=N)N)NC(=O)CN1CCN(CC(=O)O)CCN(CC(=O)O)CCN(CC(=O)O)CC1)C(=O)Nc1ccc(C(=O)NCCC[C@@H]2C(=O)N[C@@H](CCCNC(=N)N)C(=O)N[C@@H](Cc3ccc4ccccc4c3)C(=O)NCC(=O)N[C@H](Cc3ccc(O)cc3)C(=O)N2C)cc1 [[^177Lu]DOTA-r-a-ABA-CPCR4, metal not drawn] (cyclo([2Nal]G[dY][dNMeOrn]([4Abz-dA-dR-DOTA])R))
Reply: 1.41

---

assay: Biodistribution in Daudi xenograft bearing mice; type: in vivo, mouse; settings: female, CB-17 SCID, mouse, small intestine, iv, total radioactivity, 1h p.i., tracer only, i.v.; γ-counter; means ± SD, n=4-5 (68Ga: n=4); read-out: Biodistribution small intestine
Where a SMILES comes first, the peptide text is derived from it. Side-chain parts run from the residue outwards. [ ]: non-standard residue; d: D form. The star is where a group is joined. DOTA = O=C(O)CN1CCN(CC(=O)O)CCN(CC(=O)*)CCN(CC(=O)O)CC1; dTyr(3-I) = N[C@H](Cc1ccc(O)c(I)c1)C(=O)O; 2Nal = N[C@@H](Cc1ccc2ccccc2c1)C(=O)O; dNMeOrn = CN[C@H](CCCN)C(=O)O; 4Abz = Nc1ccc(C(=O)O)cc1
Measured tissue uptake at 1 h of individual entries
Value expressed in %ID/g; do not type the unit.

{"compound": "C[C@@H](NC(=O)[C@@H](CCCNC(=N)N)NC(=O)CN1CCN(CC(=O)O)CCN(CC(=O)O)CCN(CC(=O)O)CC1)C(=O)Nc1ccc(C(=O)NCCC[C@@H]2C(=O)N[C@@H](CCCNC(=N)N)C(=O)N[C@@H](Cc3ccc4ccccc4c3)C(=O)NCC(=O)N[C@H](Cc3ccc(O)cc3)C(=O)N2C)cc1 [[^68Ga]DOTA-r-a-ABA-CPCR4, metal not drawn] (cyclo([2Nal]G[dY][dNMeOrn]([4Abz-dA-dR-DOTA])R))", "tissue uptake at 1 h / %ID/g": 0.94}

Let us move to another entry and its tissue uptake at 1 h.
Query: Give the reported tissue uptake at 1 h for this compound. C[C@@H](NC(=O)[C@@H](CCCNC(=N)N)NC(=O)CN1CCN(CC(=O)O)CCN(CC(=O)O)CCN(CC(=O)O)CC1)C(=O)Nc1ccc(C(=O)NCCC[C@@H]2C(=O)N[C@@H](CCCNC(=N)N)C(=O)N[C@@H](Cc3ccc4ccccc4c3)C(=O)NCC(=O)N[C@H](Cc3ccc(O)c(I)c3)C(=O)N2C)cc1 [[^68Ga]DOTA-r-a-ABA-iodoCPCR4, metal not drawn] (cyclo([2Nal]G[dTyr(3-I)][dNMeOrn]([4Abz-dA-dR-DOTA])R))
Reply: 1.18

---

List of tissue uptake at 6 h values.
test: Biodistribution in Daudi xenograft bearing mice; assay type: in vivo, mouse; settings: female, CB-17 SCID, mouse, adrenals, iv, total radioactivity, 6h p.i., i.v.; means ± SD, n=4-5; read-out: Biodistribution adrenals
Where a SMILES comes first, the peptide text is derived from it. Side-chain parts run from the residue outwards. [ ]: non-standard residue; d: D form. The star is where a group is joined. DOTA = O=C(O)CN1CCN(CC(=O)O)CCN(CC(=O)*)CCN(CC(=O)O)CC1; dTyr(3-I) = N[C@H](Cc1ccc(O)c(I)c1)C(=O)O; 2Nal = N[C@@H](Cc1ccc2ccccc2c1)C(=O)O; dNMeOrn = CN[C@H](CCCN)C(=O)O; 4Abz = Nc1ccc(C(=O)O)cc1
Dear colleague, please return just the value in %ID/g, with no unit written.

{"molecule": "C[C@@H](NC(=O)[C@@H](CCCNC(=N)N)NC(=O)CN1CCN(CC(=O)O)CCN(CC(=O)O)CCN(CC(=O)O)CC1)C(=O)Nc1ccc(C(=O)NCCC[C@@H]2C(=O)N[C@@H](CCCNC(=N)N)C(=O)N[C@@H](Cc3ccc4ccccc4c3)C(=O)NCC(=O)N[C@H](Cc3ccc(O)c(I)c3)C(=O)N2C)cc1 [[^177Lu]DOTA-r-a-ABA-iodoCPCR4, metal not drawn] (cyclo([2Nal]G[dTyr(3-I)][dNMeOrn]([4Abz-dA-dR-DOTA])R))", "recorded_value": 0.68}

Query: Give the measured tissue uptake at 6 h for C[C@@H](NC(=O)[C@@H](CCCNC(=N)N)NC(=O)CN1CCN(CC(=O)O)CCN(CC(=O)O)CCN(CC(=O)O)CC1)C(=O)Nc1ccc(C(=O)NCCC[C@@H]2C(=O)N[C@@H](CCCNC(=N)N)C(=O)N[C@@H](Cc3ccc4ccccc4c3)C(=O)NCC(=O)N[C@H](Cc3ccc(O)cc3)C(=O)N2C)cc1 [[^177Lu]DOTA-r-a-ABA-CPCR4, metal not drawn] (cyclo([2Nal]G[dY][dNMeOrn]([4Abz-dA-dR-DOTA])R))
Reply: 0.51
